# targetUnderTest: hA1AR (Homo sapiens)
# Construct: expressed in transfected cells; membranes
# experimentalDetails: Assay of AE (allosteric enhancer) activity: slowing of 125I-ABA dissociation from the A1AR-G protein ternary complex
# Assay type: binding
# statedConditions: 0.1 mM final AE; specifically bound 125I-ABA remaining after 10 minutes of dissociation; CHO-K1 membranes; Mean ± SEM (N = 3)
measure: AE Score, % (%)
The answer is to be given in %; state only the numeric part.

Below are worked cases with known answers.
Looking up Nc1sc2c(c1C(=O)c1ccc3ccccc3c1)CCCC2 [Compound 20n] , I see its AE Score, % listed as 86

// field: AE Score, %; key: Nc1sc2c(c1C(=O)c1ccc(Br)cc1)CCCC2 [Compound 20h] ; value = 83

Measured AE Score, % of Cc1sc(N)c(C(=O)c2cccc(Cl)c2)c1C [Compound 13c] : 14

// recorded AE Score, % for N#Cc1ccc(C(=O)c2c(N)sc3c2CCCC3)cc1 [Compound 20k] : 19

Recorded result, Cc1sc(C(=O)O)c(C(=O)c2cccc(C(F)(F)F)c2)c1C [Compound 17b] , AE Score, %: 0

New cases:
Entry Nc1sc2c(c1C(=O)c1ccc(Cl)cc1)CCC2 [Compound 19f] — recorded AE Score, % = 22

AE Score, % reported for this molecule Nc1sc2c(c1C(=O)c1ccc(Br)cc1)CCC2 [Compound 19g] : 70

// sample Nc1sccc1C(=O)c1ccc(Cl)c(Cl)c1 [Compound 3h] , its AE Score, % was 1.7

What the record says about Nc1sc2c(c1C(=O)c1ccccc1)CCCCC2 [Compound 21b] : AE Score, % is 13

Input Nc1sccc1C(=O)c1cccc(Br)c1 [Compound 3d] . Output AE Score, %: 0.2

Form: molecule = Cc1sc(C(=O)O)c(C(=O)c2ccc(-c3ccccc3)cc2)c1C [Compound 17c] ; AE Score, % = 0

Record Nc1sc2c(c1C(=O)c1ccc(Br)cc1)CCCCC2 [Compound 21h] , field AE Score, %: 86

The value of AE Score, % measured for the molecule Nc1sc2c(c1C(=O)c1ccc(-c3ccccc3)cc1)CCCC2 [Compound 20l] turned out to be 33

Per the record, Nc1sc2c(c1C(=O)c1ccc(C3CCCCC3)cc1)CCCC2 [Compound 20m] has AE Score, % of 99

Form field AE Score, %, entry Nc1sc2c(c1C(=O)c1ccccc1)CCC2 [Compound 19b] : 20

AE Score, % reported for this molecule Nc1sccc1C(=O)c1ccc(Br)cc1 [Compound 3g] : 0.8

AE Score, % measured on Nc1sc2c(c1C(=O)c1cccc(I)c1)CCCCC2 [Compound 21e] = 86

Summary for this molecule, Nc1sc2c(c1C(=O)c1cccc(F)c1)CCCC2 [Compound 20c] : AE Score, % is 22

Looking up CCOC(=O)c1c(N)sc2c1CCCC2 [Compound 20a] , I found its AE Score, % recorded as 3.5

Entry under test: Nc1sc2c(c1C(=O)c1ccc(I)cc1)CCCC2 [Compound 20i] . Its AE Score, % was 86

According to the records, this molecule CCOC(=O)c1c(N)sc2c1CCC2 [Compound 19a] displays AE Score, % of 0.4

* * *

# targetUnderTest: hA1AR (Homo sapiens)
# Construct: expressed in transfected cells; membranes
# experimentalDetails: Assay of AE (allosteric enhancer) activity: slowing of 125I-ABA dissociation from the A1AR-G protein ternary complex
# Format: binding
# statedConditions: hA1AR, CHO-K1 membranes
measure: AE activity (in words)

Looking up Nc1sc2c(c1C(=O)c1ccc(-c3ccccc3)cc1)CCCC2 [Compound 20l] , I see its AE activity (in words) listed as excellent activity

Data point: N#Cc1ccc(C(=O)c2c(N)sc3c2CCCC3)cc1 [Compound 20k] ; AE activity (in words) = excellent activity

* * *

# targetUnderTest: hA1AR (Homo sapiens, UniProt P30542)
# Construct: expressed in transfected cells; membranes
# experimentalDetails: Assay of AE (allosteric enhancer) activity: slowing of 125I-ABA dissociation from the A1AR-G protein ternary complex
# Format: binding
# statedConditions: 0.1 mM final AE; specifically bound 125I-ABA remaining after 10 minutes of dissociation; CHO-K1 membranes; Mean ± SEM (N = 3)
// classify(record): look up AE Score, % in ranges bottom end: < 9%; midrange: ≥ 9% and < 60%; top end: ≥ 60%

Worked cases, answers included:
Qu. Sort Nc1sc2c(c1C(=O)c1cccc(Br)c1)CCCCC2 [Compound 21d] into one of the categories.
Ans. top end

Qu. Field: class (AE Score, %) — entry: Nc1sccc1C(=O)c1cccc(Cl)c1 [Compound 3c]
Ans. bottom end

Qu. Field: class (AE Score, %) — entry: Nc1sc2c(c1C(=O)c1cccc(Cl)c1)CCC2 [Compound 19c]
Ans. midrange

Qu. Consider Nc1sc2c(c1C(=O)c1cccc(Br)c1)CCCC2 [Compound 20e] . To which AE Score, % class does it belong?
Ans. midrange

Qu. Categorize the following entry: Nc1sccc1C(=O)c1cccc(F)c1 [Compound 3b]
Ans. bottom end

Qu. For COc1cccc(C(=O)c2c(N)sc3c2CCCCC3)c1 [Compound 21j] , which AE Score, % bin applies?
Ans. top end

---
Qu. Classify this compound: COc1ccc(C(=O)c2c(N)sc3c2CCCCC3)cc1 [Compound 21k]
Ans. top end

Qu. Which class is correct for the following compound? Nc1sc2c(c1C(=O)c1ccc(Cl)cc1)CCCC2 [Compound 20g]
Ans. top end

Qu. Categorize the following entry: Cc1ccc(C(=O)c2c(N)sc3c2CCCC3)cc1 [Compound 20j]
Ans. midrange

Qu. For the record Nc1sc2c(c1C(=O)c1ccc(Cl)cc1)CCCCC2 [Compound 21g] , report the class its AE Score, % corresponds to.
Ans. top end

Qu. The entry to classify is Cc1cccc(C(=O)c2c(N)sc(C)c2C)c1 [Compound 13e] ; which class holds it?
Ans. midrange

Qu. Would you mind sorting Nc1sc2c(c1C(=O)c1ccc(F)cc1)CCCC2 [Compound 20f] into the appropriate category?
Ans. midrange

Qu. Lab note: sort CCOC(=O)c1c(N)sc2c1CCCCC2 [Compound 21a] into the matching AE Score, % band.
Ans. bottom end

Qu. Bin this entry: Nc1sccc1C(=O)c1ccc(Cl)cc1 [Compound 3f]
Ans. bottom end

Qu. Record Nc1sc2c(c1C(=O)c1cccc(Cl)c1)CCCC2 [Compound 20d] — which class?
Ans. top end

Qu. Note: place this compound into its band. Item: Cc1cc(C)c(C(=O)c2c(N)sc(C)c2C)c(C)c1 [Compound 13h]
Ans. bottom end

* * *

Measured AE Score, % accompanies every entry in the list below.
# targetUnderTest: hA1AR (Homo sapiens)
# Construct: expressed in transfected cells; membranes
# Sequence (P30542 1-326): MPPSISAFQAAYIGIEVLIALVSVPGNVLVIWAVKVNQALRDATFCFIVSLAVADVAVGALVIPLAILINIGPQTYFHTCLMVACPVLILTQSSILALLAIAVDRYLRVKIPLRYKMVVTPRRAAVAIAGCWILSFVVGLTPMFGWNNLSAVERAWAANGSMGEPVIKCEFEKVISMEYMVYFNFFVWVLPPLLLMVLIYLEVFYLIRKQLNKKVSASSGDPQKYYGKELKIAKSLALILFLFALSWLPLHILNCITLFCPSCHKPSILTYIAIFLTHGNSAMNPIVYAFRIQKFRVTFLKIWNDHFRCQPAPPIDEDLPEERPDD
# experimentalDetails: Assay of AE (allosteric enhancer) activity: slowing of 125I-ABA dissociation from the A1AR-G protein ternary complex
# Type: binding
# statedConditions: 0.1 mM final AE; specifically bound 125I-ABA remaining after 10 minutes of dissociation; CHO-K1 membranes; Mean ± SEM (N = 3)
Respond numerically; units are % and should not be typed.

Notebook: Cc1sc(N)c(C(=O)c2cccc(Br)c2)c1C [Compound 13d] , AE Score, % read as 16

Documented AE Score, % of Nc1sccc1C(=O)c1ccc(F)cc1 [Compound 3e] : 0

Noted for Nc1sc2c(c1C(=O)c1ccc(-c3ccccc3)cc1)CCC2 [Compound 19h] : its AE Score, % reads 62

The compound listed as NC1SC2=CCCC2=C1C(=O)c1cccc(Br)c1 (centres unmarked) [Compound 19d] shows AE Score, % equal to 13

AE Score, % measured on Nc1sc2c(c1C(=O)c1cccc(Cl)c1)CCCCC2 [Compound 21c] = 65

response.value for Cc1sc(N)c(C(=O)c2cccc(F)c2)c1C [Compound 13b] (field: AE Score, %) = 0

Reported AE Score, % of Nc1sc2c(c1C(=O)c1ccc(I)cc1)CCCCC2 [Compound 21i] : 96

* * *

# targetUnderTest: hA1AR (Homo sapiens, UniProt P30542)
# Construct: expressed in transfected cells; membranes
# experimentalDetails: Assay of AE (allosteric enhancer) activity: slowing of 125I-ABA dissociation from the A1AR-G protein ternary complex
# Type: binding
# statedConditions: 0.1 mM final AE; specifically bound 125I-ABA remaining after 10 minutes of dissociation; CHO-K1 membranes; Mean ± SEM (N = 3)
measure: AE Score, % (%)
Provide only the numeric value, understood in %.

Sample records with AE Score, %:
Sample `Nc1sccc1C(=O)c1ccc2ccccc2c1` ; AE Score, % observed: 3.2

Kindly note the recorded AE Score, % for Nc1sc2c(c1C(=O)c1ccc(F)cc1)CCC2 [Compound 19e] , which is 68

Per the records, this compound ( `Nc1sccc1C(=O)c1ccccc1` ) has AE Score, % equal to 0.2

Others:
Data point: Cc1sc(N)c(C(=O)c2cccc(-c3ccccc3)c2)c1C [Compound 13g] ; AE Score, % = 12

# AE Score, % of Nc1sc2c(c1C(=O)c1ccc(F)cc1)CCCCC2 [Compound 21f] = 22

GET /value?item= Cc1sc(N)c(C(=O)c2ccccc2)c1C [Compound 13a] &field=AE Score, % returns 9

get_value(item= Nc1sc2c(c1C(=O)c1ccccc1)CCCC2 [Compound 20b] , readout=AE Score, %) returns 19

Attribution: patent US6713638B2
